Below, each entry is listed alongside its reported pIC50.
molecular target: α4β1 integrin (Homo sapiens (Human), UniProt P05556+P13612); test: Integrin Adhesion Assay: Protocol 5 (VCAM-coated plate, RPMI-8866 cells with stable LOF mutation of the ITGB7 gene); assay type: cell-based; settings: RPMI-8866 cells with stable LOF mutation of the ITGB7 gene; read-out: Mean IC50 α4β1 KO^b
Sequence (P13612 34-1032): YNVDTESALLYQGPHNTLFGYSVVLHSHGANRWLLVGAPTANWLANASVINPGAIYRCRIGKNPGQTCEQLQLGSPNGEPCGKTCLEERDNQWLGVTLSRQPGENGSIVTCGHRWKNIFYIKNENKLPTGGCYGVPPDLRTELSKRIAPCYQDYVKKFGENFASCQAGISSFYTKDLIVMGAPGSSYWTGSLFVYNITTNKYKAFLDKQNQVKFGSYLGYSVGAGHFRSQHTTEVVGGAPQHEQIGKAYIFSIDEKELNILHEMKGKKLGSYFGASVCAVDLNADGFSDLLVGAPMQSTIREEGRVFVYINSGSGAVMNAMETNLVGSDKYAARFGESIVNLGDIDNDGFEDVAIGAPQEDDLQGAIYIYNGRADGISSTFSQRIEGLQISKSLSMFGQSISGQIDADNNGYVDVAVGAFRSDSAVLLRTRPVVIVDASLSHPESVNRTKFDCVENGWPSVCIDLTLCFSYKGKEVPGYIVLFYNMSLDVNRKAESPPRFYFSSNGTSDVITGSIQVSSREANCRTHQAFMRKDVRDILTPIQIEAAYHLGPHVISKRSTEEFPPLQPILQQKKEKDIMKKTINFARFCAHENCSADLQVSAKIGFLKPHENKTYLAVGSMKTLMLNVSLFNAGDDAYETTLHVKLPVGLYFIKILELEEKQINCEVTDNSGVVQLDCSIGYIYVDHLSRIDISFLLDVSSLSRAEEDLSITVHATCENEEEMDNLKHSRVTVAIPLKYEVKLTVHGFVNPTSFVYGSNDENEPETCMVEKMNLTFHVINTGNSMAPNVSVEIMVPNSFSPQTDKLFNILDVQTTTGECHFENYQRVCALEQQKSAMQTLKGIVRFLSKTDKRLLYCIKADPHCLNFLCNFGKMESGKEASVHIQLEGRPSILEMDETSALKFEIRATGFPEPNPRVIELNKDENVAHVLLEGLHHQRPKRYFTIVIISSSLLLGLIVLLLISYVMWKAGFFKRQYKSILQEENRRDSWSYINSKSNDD
Sequence (P05556 21-798): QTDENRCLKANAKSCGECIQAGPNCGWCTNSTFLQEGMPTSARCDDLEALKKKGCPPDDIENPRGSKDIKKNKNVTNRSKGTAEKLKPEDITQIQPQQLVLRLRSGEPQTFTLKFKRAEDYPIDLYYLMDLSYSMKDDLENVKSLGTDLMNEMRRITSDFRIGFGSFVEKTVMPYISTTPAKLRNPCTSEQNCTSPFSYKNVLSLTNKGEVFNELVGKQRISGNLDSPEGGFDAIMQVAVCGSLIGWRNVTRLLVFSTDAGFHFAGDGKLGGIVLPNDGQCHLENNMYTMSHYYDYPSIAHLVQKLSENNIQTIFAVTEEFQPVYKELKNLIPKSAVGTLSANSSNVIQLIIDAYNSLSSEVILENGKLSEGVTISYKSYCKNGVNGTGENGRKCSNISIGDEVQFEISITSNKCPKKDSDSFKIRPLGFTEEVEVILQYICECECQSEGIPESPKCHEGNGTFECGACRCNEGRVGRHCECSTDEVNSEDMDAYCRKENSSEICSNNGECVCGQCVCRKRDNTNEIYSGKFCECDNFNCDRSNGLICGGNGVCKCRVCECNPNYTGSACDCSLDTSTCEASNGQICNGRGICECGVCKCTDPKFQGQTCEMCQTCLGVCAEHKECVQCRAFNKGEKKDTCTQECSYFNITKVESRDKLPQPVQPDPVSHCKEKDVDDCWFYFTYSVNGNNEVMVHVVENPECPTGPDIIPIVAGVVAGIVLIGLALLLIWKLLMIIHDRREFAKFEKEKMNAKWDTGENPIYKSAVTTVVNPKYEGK
pIC50: −log10 of the molar value.

Sample answers from the record:
[
  {
    "molecule": "COc1ccc(CN2CCC(C(C)(C)C)CC2)c(OC)c1-c1cccc2c(C[C@H](NC(=O)c3c(C)cccc3F)C(=O)O)cccc12 [Compound 579]",
    "pIC50": "6.00 to 7.00"
  },
  {
    "molecule": "CCOCc1cc(OC)c(-c2cccc3c(C[C@H](NC(=O)c4c(C)cccc4F)C(=O)O)cccc23)c(OC)c1 [Compound 448]",
    "pIC50": "6.00 to 7.00"
  },
  {
    "molecule": "Cn1c(=O)c(-c2cccc3c(C[C@H](NC(=O)c4c(F)cccc4CN4CCC(F)(F)C4)C(=O)O)cccc23)c(C(F)(F)F)c2ccccc21 [Compound 456]",
    "pIC50": "< 6.00"
  },
  {
    "molecule": "CN(C)CCc1cc(-c2cccc3c(C[C@H](NC(=O)C4(C(F)(F)F)CCN(CC(F)(F)F)CC4)C(=O)O)cccc23)c2cnccc2c1 [Compound 469]",
    "pIC50": "6.00 to 7.00"
  },
  {
    "molecule": "CN(C)Cc1cccc2c(-c3cccc4c(C[C@H](NC(=O)C5(C(F)(F)F)CCN(CC(F)(F)F)CC5)C(=O)O)cccc34)nccc12 [Compound 421]",
    "pIC50": "< 6.00"
  },
  {
    "molecule": "COc1cc(CN(C)C)cc(OC)c1-c1cccc2c(C[C@H](NC(=O)C3(C(F)(F)F)CCN(CC(F)(F)F)CC3)C(=O)O)cccc12 [Compound 478]",
    "pIC50": "< 6.00"
  },
  {
    "molecule": "COc1cccc(CN2CCCCC2)c1-c1cccc2c(C[C@H](NC(=O)c3c(C)cc(NCC(F)(F)F)cc3F)C(=O)O)cccc12 [Compound 545]",
    "pIC50": "6.00 to 7.00"
  },
  {
    "molecule": "Cn1c(=O)c(-c2cccc3c(C[C@H](NC(=O)c4c(F)cc(N5CCCCC5)cc4F)C(=O)O)cccc23)c(C(F)(F)F)c2ccccc21 [Compound 354]",
    "pIC50": "< 6.00"
  },
  {
    "molecule": "Cc1n[nH]c(C)c1-c1ccc(F)c(C(=O)N[C@@H](Cc2cccc3c(-c4c(C(F)(F)F)c5ccccc5n(C)c4=O)cccc23)C(=O)O)c1F [Compound 309]",
    "pIC50": "< 6.00"
  },
  {
    "molecule": "COc1ccc(CN2CCC(C)(C)CC2)c(OC)c1-c1cccc2c(C[C@H](NC(=O)c3c(C)cccc3F)C(=O)O)cccc12 [Compound 626]",
    "pIC50": "6.00 to 7.00"
  }
]

Now for the molecule whose pIC50 we want.
Exam item: Give recorded pIC50. COC(=O)[C@H](Cc1cccc2c(-c3c(OC)ccc(CN4C(C)CCC4C)c3OC)cccc12)NC(=O)c1c(C)cccc1F (stereo partly drawn) [Compound 552]
Marked response: 6.00 to 7.00
